IC50 reference
- Tested on: MUTZ5
- Assay Summary: WST-1 proliferation assay, MUTZ5
- Type: cell-based, human
- Condition Notes: WST-1, 48 hours of treatment

| Molecule | System Under Test | Output Unit | IC50 |
| --- | --- | --- | --- |
| COC(=O)N(C)/N=N/c1ccc(CNc2cccc3c2CN(C2CCC(=O)NC2=O)C3=O)cc1 (stereo not shown) | MUTZ5 | µM | 47.5 |
| COC(=O)N(C)/N=N/c1ccc(CNc2nc3ccc(OC(F)(F)F)cc3s2)cc1 | MUTZ5 | µM | 1.81 |
| COC(=O)N(C)/N=N/c1ccc(COc2c(OC)cc([C@@H]3c4cc5c(cc4[C@@H](OC4O[C@@H]6CO[C@@H](C)O[C@H]6[C@H](O)[C@H]4O)[C@H]4COC(=O)[C@H]34)OCO5)cc2OC)cc1 (stereo partly shown) | MUTZ5 | µM | 34.8 |
| COC(=O)N(C)/N=N/c1ccc(CNc2cc3c4c(cccc4c2)C(=O)N(CCN(C)C)C3=O)cc1 | MUTZ5 | µM | 10.3 |
